Entries annotated with measured Size
experiment_notes: Particle size and polydispersity index of nanoparticle compositions (Zetasizer Nano ZS)
Type: physicochemical
assay_setup: Table 1D; compositions for subcutaneous administration; # formulated with hEPO mRNA
property: Size (nm)

molecule=CCCCCCCCCOC(=O)CCCCCCCN(CCCCCCCC(=O)OC(CCCCCCCC)CCCCCCCC)CCCN/C(=N/C#N)N(C)C reported_value=87.4
molecule="CCCCCCCCCC(=O)OC(C)CCCCCCN(CCO)CCCCCCCC(=O)OC(CCCCCCCC)CCCCCCCC (stereo not drawn)" reported_value=74.8
molecule=CCCCCCCCCCCOC(=O)CCCCCN(CCO)CCCCCCCC(=O)OC(CCCCCCCC)CCCCCCCC reported_value=77.6

* * *

This section presents molecules with their documented Size values.
experiment_notes: Particle size and polydispersity index of nanoparticle compositions (Zetasizer Nano ZS)
Format: physicochemical
assay_setup: Table 1A; lipid:DSPC:cholesterol:PEG-DMG 50:10:38.5:1.5 mol %
property: Size (nm)

molecule="CCCCCCCCCOC(=O)CCCCCCCN(CCO)CCCCCCCC(=O)OC(CCC1CC1CCCC)CCC1CC1CCCC (stereo not shown)" unit=nm reported_value=89.0
molecule="CCCCCCCCC(CCCCCCCC)OC(=O)CCCCCCCN(CCO)CCCCCCCC(=O)OC1CCC(CCCCC)CC1 (stereo not shown)" unit=nm reported_value=76.7
molecule="CCCCCCCCCOC(=O)CCCCCCCN(CCCCCCCC(=O)OC(CCCCCCCC)CCCCCCCC)C(C)CO (stereo not shown)" unit=nm reported_value=61
molecule="CCCCCCCCC(CCCCCCCC)OC(=O)CCCCCCCN(CCO)CCCC(=O)OC(CCCCCC)CCCCCCCC (stereo not shown)" unit=nm reported_value=59.2

* * *

System: modified luciferase
experiment_notes: Luciferase expression in liver, lung, spleen and femur 6 hours after intravenous administration to mice
Format: in vivo
assay_setup: liver, 6 hours after intravenous 0.5 mpk, mice
property: Total Flux, Liver

compound="CCCCCCCCC(CCCCCCCC)OC(=O)CCCCCCCN(C)CCCCCCCCCCCC(=O)OCCCCC [Compound 150]" reported_value=1.54E+09
compound="CCCCCCCCOP(=O)(OCCCCCCCC)OCCCCCCCN(CCO)CCCCCCCC(=O)OC(C)CCCCCCCC (stereo not shown) [Compound 132]" reported_value=1.49E+08
compound="CCCCCCCCCOC(=O)CCCCCCCN(CCCCCCCC(=O)OC(CCCCCCCC)CCCCCCCC)CCN1CCN(C)CC1 [Compound 101]" reported_value=1.27E+07
compound="CCCCCCCCCOC(=O)CCCCCCCN(CCO)CCCCCCCC(=O)OC1CCCCCCCCCCCCCC1 [Compound 81]" reported_value=2.74E+08
compound="CCCCCCCCC(CCCCCCCC)OC(=O)CCCCCCCN(CCO)CCCCCCCC(=O)OC(CCCCCCCC)CCCCCCCC [compound 29]" reported_value=5.20E+08
compound="CCCCCCCCC(CCCCCCCC)OC(=O)CCCCCCCN(CCO)CCCCCCCC(=O)OC(CCCCCCCC)C1CC1 (stereo not shown) [Compound 65]" reported_value=9.56E+09
compound="CCCCCCCCCOC(=O)CCCCCCCN(CCCCCCCC(=O)OC(CCCCCCCC)CCCCCCCC)CCN(C)C [Compound 14]" reported_value=1.91E+08

* * *

experiment_notes: Encapsulation efficiency of RNA in nanoparticle compositions (RIBOGREEN assay)
Type: physicochemical
assay_setup: Table 1A; lipid:DSPC:cholesterol:PEG-DMG 50:10:38.5:1.5 mol %
Source text: For nanoparticle compositions including an RNA, a QUANT-IT™ RIBOGREEN® RNA assay (Invitrogen Corporation Carlsbad, Calif.) can be used to evaluate the encapsulation of an RNA by the nanoparticle composition. […] The fluorescence intensity can be measured using a fluorescence plate reader (Wallac Victor 1420 Multilabel Counter; Perkin Elmer, Waltham, Mass.) at an excitation wavelength of, for example, about 480 nm and an emission wavelength of, for example, about 520 nm. […]
Some compounds, each annotated with its measured EE.
property: EE (%)

compound="CCCCCCCCCOC(=O)CCCCCCCN(CCCCCCCC(=O)OC(CCCCCCCC)CCCCCCCC)CCCN/C(=N/S(C)(=O)=O)N(C)C [Compound 233]" unit=% reported_value=97.81
compound="CCCCCCCCC(CCCCCCCC)OC(=O)CCCCCCCN(CCO)CCCC(=O)OCCCCC [Compound 52]" unit=% reported_value=93.25
compound="CCCCCCCCCOC(=O)CCCCCCCN(CCO)CCCCCCCC(=O)OC(CCC1CC1CCCC)CCC1CC1CCCC (centres unmarked) [Compound 160]" unit=% reported_value=94.0
compound="CCCCCCCCCOC(=O)CCCCCCCN(CCO)CCCCCCCC(=O)OCCCCCCCCC [compound 138]" unit=% reported_value=91.8
compound="CCCCCCCCCCCCN(CCO)CCCCCCCCCCCC(=O)OC [Compound 137]" unit=% reported_value=85.7
compound="CCCCCCCCCOC(=O)CCCCCCCN(CCO)CCCCCCCCCC(=O)OC(CCCCCC)CCCCCC [Compound 147]" unit=% reported_value=88.31
compound="CCCCCCCCC(CCCCCCCC)OC(=O)CCCCCCCN(CCO)CCCC(=O)OCCCC [Compound 51]" unit=% reported_value=89.83
compound="CCCCCCCCC(CCCCCCCC)OC(=O)CCCCCCCN(CCO)CCCC(=O)OCCCCCC [Compound 53]" unit=% reported_value=95.8
